- tested_target: Recombinant JAK2 (Homo sapiens, UniProt O60674)
- Construct: purchased Carna Biosciences
- Sequence (O60674 whole entry): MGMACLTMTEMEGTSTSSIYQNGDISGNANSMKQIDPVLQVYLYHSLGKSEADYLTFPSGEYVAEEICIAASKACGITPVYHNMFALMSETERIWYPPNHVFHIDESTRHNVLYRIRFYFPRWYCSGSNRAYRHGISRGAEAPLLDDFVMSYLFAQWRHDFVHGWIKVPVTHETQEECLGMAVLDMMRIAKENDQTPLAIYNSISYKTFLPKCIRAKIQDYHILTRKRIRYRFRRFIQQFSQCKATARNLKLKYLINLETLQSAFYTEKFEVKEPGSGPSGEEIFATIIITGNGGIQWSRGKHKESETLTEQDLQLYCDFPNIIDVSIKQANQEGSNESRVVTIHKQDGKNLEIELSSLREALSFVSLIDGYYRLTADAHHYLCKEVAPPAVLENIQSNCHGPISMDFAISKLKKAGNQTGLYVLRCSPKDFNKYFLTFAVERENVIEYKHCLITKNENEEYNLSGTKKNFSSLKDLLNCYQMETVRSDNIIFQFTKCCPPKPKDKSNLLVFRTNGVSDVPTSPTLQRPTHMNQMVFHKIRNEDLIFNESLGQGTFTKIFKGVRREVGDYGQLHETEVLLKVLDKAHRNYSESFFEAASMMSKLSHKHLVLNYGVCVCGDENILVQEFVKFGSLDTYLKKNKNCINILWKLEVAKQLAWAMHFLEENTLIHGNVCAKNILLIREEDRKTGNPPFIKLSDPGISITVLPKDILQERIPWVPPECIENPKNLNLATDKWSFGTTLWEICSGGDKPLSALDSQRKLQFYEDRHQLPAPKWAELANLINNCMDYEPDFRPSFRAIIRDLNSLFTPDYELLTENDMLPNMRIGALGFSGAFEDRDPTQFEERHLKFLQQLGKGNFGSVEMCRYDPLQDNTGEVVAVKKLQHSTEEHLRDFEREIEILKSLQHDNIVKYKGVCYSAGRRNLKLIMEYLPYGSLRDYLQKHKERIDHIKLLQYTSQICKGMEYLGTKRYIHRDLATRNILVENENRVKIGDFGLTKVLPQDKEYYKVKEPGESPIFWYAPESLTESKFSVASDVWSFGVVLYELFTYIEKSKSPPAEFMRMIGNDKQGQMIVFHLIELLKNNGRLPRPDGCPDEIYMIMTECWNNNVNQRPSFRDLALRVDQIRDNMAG
- test_details: JAK biochemical assay (LANCE Ultra TR-FRET), JAK2
- test_settings: recombinant JAK2, TR-FRET; read-out: Biochemical Assay (μM) JAK2
Catalogue of compounds with associated IC50
All answers are understood in µM, so give the number only.

Example entries begin here.
                                   compound  assay_result
0  O=C(NCC(F)(F)F)n1cc(-c2ccnc3[nH]c(=O)[nH]c23)cn1 [Example 1026]         0.048
1  CC(NC(=O)n1cc(-c2ccnc3[nH]c(=O)[nH]c23)cn1)C(F)(F)F (centres unmarked) [Example 1030]         0.066
2  N#CCc1csc(-n2cc(-c3ccnc4[nH]cnc34)cn2)n1 [Example 1076]         0.085

Okay, now this compound:
Req: Consider the compound shown here: N#CCc1coc(-n2cc(-c3ccnc4[nH]cnc34)cn2)n1 [Example 1075] What is its recorded IC50?
Resp: 0.19

====

- tested_target: Recombinant JAK1 (Homo sapiens)
- Construct: purchased Carna Biosciences
- test_details: JAK biochemical assay (LANCE Ultra TR-FRET), JAK1
- test_settings: recombinant JAK1, TR-FRET; read-out: Biochemical Assay (μM) JAK1
Structures can show the parent of a compound that is named as a salt.
recorded_metric: IC50

>>> print(df.to_string())
                                   molecule  recorded_metric  assay_result
0  N#CCNC(=O)n1cc(-c2ccnc3[nH]c(=O)[nH]c23)cn1 [Example 1035, hydrochloride]             IC50       > 10 µM
1  N#CCOC(c1ccc(-n2cc(-c3ccnc4[nH]cnc34)cn2)nc1)C(F)(F)F (centres unmarked) [Example 1157]             IC50      < 0.1 µM
2  CC(CC#N)NC(=O)n1cc(-c2ccnc3[nH]c(=O)[nH]c23)cn1 (centres unmarked) [Example 1046]             IC50      < 0.5 µM

Req: Consider the molecule shown here: O[C@@](c1ccc(-n2cc(-c3ccnc4[nH]cnc34)cn2)nc1)(C1CCN(C2COC2)C1)C(F)(F)F (some centres unmarked) [Example 1242] What is its recorded IC50?
Resp: < 0.1 µM

Req: Consider the molecule shown here: CC(F)(c1ccc(-n2cc(-c3ccnc4[nH]cnc34)cn2)nc1)C(F)(F)F (centres unmarked) [Example 1128] What is its recorded IC50?
Resp: < 0.1 µM

Req: Consider the molecule shown here: CS(=O)(=O)CCC(F)c1ccc(-n2cc(-c3ccnc4[nH]cnc34)cn2)nc1 (centres unmarked) [Example 1162] What is its recorded IC50?
Resp: > 0.5 µM

Req: Consider the molecule shown here: FC(F)(F)C(CN1CCOCC1)c1ccc(-n2cc(-c3ccnc4[nH]cnc34)cn2)nc1 (centres unmarked) [Example 1206] What is its recorded IC50?
Resp: > 0.1 µM

Req: Consider the molecule shown here: CS(=O)(=O)CCC(c1ccc(-n2cc(-c3ccnc4[nH]cnc34)cn2)nc1)C(F)(F)F (centres unmarked) [Example 1174] What is its recorded IC50?
Resp: 0.018 µM

====

Catalogue of compounds with associated IC50
- tested_target: Recombinant TYK2 (Homo sapiens, UniProt P29597)
- Construct: purchased Carna Biosciences
- Sequence (P29597 whole entry): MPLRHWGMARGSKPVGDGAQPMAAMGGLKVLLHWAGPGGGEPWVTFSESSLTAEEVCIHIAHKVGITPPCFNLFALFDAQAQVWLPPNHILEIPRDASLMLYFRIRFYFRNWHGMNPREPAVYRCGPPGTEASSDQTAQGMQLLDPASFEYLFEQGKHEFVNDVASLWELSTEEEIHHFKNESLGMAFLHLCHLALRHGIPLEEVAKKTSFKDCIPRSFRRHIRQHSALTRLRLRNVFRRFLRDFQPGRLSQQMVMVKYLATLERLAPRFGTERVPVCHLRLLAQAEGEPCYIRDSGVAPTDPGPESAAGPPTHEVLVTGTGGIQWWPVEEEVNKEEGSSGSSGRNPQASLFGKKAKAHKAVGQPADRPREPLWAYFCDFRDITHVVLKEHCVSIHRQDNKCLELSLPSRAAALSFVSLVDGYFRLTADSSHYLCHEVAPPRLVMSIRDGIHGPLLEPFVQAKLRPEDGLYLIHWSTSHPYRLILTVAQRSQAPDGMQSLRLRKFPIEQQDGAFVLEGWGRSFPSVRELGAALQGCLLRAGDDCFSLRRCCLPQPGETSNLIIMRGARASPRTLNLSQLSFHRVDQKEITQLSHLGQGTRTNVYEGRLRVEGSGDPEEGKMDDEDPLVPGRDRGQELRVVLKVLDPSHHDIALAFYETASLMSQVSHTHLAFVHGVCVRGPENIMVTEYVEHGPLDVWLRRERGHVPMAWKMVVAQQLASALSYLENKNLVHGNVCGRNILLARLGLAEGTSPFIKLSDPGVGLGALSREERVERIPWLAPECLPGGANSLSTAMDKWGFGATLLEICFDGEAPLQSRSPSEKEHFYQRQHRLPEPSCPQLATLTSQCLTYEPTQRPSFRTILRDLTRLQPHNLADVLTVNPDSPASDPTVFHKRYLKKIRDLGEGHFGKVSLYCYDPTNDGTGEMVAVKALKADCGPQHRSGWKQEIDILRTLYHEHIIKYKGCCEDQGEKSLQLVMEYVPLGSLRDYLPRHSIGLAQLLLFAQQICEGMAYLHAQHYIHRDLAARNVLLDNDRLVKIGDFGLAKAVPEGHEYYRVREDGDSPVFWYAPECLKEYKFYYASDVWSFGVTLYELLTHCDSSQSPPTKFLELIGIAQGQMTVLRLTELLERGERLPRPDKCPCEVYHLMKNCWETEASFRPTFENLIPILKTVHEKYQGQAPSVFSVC
- test_details: JAK biochemical assay (LANCE Ultra TR-FRET), TYK2
- test_settings: recombinant TYK2, TR-FRET; read-out: Biochemical Assay (μM) TYK2

                                   compound  recorded_metric  assay_result
0  CC(C)[C@@H](C#N)NC(=O)n1cc(-c2ccnc3[nH]c(=O)[nH]c23)cn1             IC50      < 0.5 µM
1  CCC(c1ccc(-n2cc(-c3ccnc4[nH]cnc34)cn2)nc1)C(F)(F)F (stereo not shown)             IC50        > 1 µM
2  O=S(=O)(CCC(c1ccc(-n2cc(-c3ccnc4[nH]cnc34)cn2)nc1)C(F)(F)F)C1CC1 (stereo not shown)             IC50        > 1 µM

Okay, now this compound:
Req: Consider the compound shown here: O=C(NCC1CCCC1)N1CCN(c2ccnc3[nH]c(=O)[nH]c23)CC1 What is its recorded IC50?
Resp: > 10 µM

====

- tested_target: Recombinant JAK1 (Homo sapiens, UniProt P23458)
- Construct: purchased Carna Biosciences
- Sequence (P23458 whole entry): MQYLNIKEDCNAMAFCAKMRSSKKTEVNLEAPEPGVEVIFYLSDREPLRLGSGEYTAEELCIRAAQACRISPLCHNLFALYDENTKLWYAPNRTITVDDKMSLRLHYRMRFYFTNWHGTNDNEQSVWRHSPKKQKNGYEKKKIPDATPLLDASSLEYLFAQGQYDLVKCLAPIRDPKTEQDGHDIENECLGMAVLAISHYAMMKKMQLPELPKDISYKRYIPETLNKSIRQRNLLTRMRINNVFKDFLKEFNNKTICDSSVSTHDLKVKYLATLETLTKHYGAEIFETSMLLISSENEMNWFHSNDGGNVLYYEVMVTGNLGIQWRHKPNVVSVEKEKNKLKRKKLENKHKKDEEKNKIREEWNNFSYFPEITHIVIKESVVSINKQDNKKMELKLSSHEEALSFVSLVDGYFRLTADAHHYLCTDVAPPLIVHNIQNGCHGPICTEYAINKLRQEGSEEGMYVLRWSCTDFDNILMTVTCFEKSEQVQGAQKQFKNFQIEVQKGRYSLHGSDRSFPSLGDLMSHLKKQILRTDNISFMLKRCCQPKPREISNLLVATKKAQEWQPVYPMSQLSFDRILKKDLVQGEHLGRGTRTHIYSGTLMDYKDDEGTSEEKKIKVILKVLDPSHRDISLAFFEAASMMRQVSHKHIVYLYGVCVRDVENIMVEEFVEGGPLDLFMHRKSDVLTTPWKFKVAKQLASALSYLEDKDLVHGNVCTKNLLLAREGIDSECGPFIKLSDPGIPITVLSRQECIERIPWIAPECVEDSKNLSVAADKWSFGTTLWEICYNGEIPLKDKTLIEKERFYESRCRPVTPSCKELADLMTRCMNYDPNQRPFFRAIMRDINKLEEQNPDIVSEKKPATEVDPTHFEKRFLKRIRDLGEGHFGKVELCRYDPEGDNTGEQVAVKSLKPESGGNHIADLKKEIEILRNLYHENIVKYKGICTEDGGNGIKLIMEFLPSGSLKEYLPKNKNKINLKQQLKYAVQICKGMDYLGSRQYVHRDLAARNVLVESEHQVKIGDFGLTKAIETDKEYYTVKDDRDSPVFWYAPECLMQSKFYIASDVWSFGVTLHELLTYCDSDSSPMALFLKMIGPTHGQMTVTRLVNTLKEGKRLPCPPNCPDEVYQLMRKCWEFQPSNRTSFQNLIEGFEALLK
- test_details: JAK biochemical assay (LANCE Ultra TR-FRET), JAK1
- test_settings: recombinant JAK1, TR-FRET; read-out: Biochemical Assay (μM) JAK1
recorded_metric: IC50

Example entries begin here.
                                   molecule  recorded_metric  assay_result
0  O=C(NCC(F)(F)F)n1cc(-c2ccnc3[nH]cnc23)cn1             IC50      < 0.5 µM
1  O=S1(=O)CCN(Cc2ccc(-n3cc(-c4ccnc5[nH]cnc45)cn3)nc2)CC1             IC50      < 0.5 µM
2  CC(=O)N1CCC(C(O)(c2ccc(-n3cc(-c4ccnc5[nH]cnc45)cn3)nc2)C(F)(F)F)CC1 (centres unmarked)             IC50      0.053 µM
3  O=C(Nc1ccncc1)Nc1ccc(-c2ccnc3[nH]c(=O)[nH]c23)cc1             IC50       > 10 µM
4  CNCCC(c1ccc(-n2cc(-c3ccnc4[nH]cnc34)cn2)nc1)C(F)(F)F (centres unmarked) [Example 1152]             IC50      < 0.1 µM

Req: GET /values?readout=IC50&system=Recombinant JAK1 (Homo sapiens, UniProt P23458)&item= O=C1Cc2c(-c3cnn(C(=O)NCC(F)(F)F)c3)ccnc2N1
Resp: > 1 µM

Req: GET /values?readout=IC50&system=Recombinant JAK1 (Homo sapiens, UniProt P23458)&item= N#CCc1ccc(-n2cc(-c3ccnc4[nH]cnc34)cn2)nc1 [Example 1078]
Resp: 0.025 µM

Req: GET /values?readout=IC50&system=Recombinant JAK1 (Homo sapiens, UniProt P23458)&item= CS(=O)(=O)CCC(C#N)NC(=O)n1cc(-c2ccnc3[nH]cnc23)cn1 (centres unmarked)
Resp: > 0.5 µM

====

- tested_target: Recombinant JAK3 (Homo sapiens, UniProt P52333)
- Construct: purchased Carna Biosciences
- Sequence (P52333 whole entry): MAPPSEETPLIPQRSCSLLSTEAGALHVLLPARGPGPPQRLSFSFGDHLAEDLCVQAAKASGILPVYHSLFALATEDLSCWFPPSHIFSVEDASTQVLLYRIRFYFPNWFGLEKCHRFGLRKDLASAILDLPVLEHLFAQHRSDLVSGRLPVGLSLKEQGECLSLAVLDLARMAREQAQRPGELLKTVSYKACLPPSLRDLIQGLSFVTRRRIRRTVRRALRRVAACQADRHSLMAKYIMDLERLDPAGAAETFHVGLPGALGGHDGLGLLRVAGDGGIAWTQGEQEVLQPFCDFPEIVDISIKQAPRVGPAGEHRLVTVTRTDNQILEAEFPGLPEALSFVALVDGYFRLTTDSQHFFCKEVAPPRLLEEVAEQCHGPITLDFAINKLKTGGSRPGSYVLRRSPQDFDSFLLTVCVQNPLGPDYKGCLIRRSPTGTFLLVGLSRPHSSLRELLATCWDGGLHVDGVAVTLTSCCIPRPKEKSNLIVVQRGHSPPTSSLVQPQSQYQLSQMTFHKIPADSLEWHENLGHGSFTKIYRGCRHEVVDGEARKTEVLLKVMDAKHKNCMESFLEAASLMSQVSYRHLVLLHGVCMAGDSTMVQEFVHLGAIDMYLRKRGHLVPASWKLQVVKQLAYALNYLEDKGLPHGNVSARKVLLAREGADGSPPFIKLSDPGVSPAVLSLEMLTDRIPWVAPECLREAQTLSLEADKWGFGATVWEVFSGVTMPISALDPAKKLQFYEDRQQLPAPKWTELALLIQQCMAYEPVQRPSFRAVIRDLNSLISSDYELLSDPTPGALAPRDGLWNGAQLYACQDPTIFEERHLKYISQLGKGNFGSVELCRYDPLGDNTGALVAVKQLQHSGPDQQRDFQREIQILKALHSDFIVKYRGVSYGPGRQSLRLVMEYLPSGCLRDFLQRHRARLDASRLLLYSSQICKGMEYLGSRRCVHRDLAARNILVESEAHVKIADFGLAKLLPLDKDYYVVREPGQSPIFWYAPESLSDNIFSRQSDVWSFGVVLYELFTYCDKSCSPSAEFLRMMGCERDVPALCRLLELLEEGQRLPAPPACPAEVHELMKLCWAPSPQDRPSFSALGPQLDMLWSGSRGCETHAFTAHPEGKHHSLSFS
- test_details: JAK biochemical assay (LANCE Ultra TR-FRET), JAK3
- test_settings: recombinant JAK3, TR-FRET; read-out: Biochemical Assay (μM) JAK3
Structures can show the parent of a compound that is named as a salt.
recorded_metric: IC50

Example entries begin here.
>>> print(df.to_string())
                                   molecule  assay_result
0  FC(F)(F)C(OCCNC1CC1)c1ccc(-n2cc(-c3ccnc4[nH]cnc34)cn2)nc1 (stereo not shown)      < 0.1 µM
1  CS(=O)(=O)CCC(C#N)c1ccc(-n2cc(-c3ccnc4[nH]cnc34)cn2)nc1 (stereo not shown)      > 0.1 µM
2  O=C(Nc1ccc(-c2ccnc3[nH]c(=O)[nH]c23)cc1)N1CCOCC1        > 1 µM
3  NS(=O)(=O)CCC(c1ccc(-n2cc(-c3ccnc4[nH]cnc34)cn2)nc1)C(F)(F)F (stereo not shown)      < 0.1 µM
4  N#CC(c1ccc(-n2cc(-c3ccnc4[nH]cnc34)cn2)nc1)N1CC(F)(F)C1 (stereo not shown)      < 0.5 µM

Req: Consider the molecule shown here: O[C@@](c1ccc(-n2cc(-c3ccnc4[nH]cnc34)cn2)nc1)(C1CCN(C2COC2)C1)C(F)(F)F (stereo partly shown) What is its recorded IC50?
Resp: < 0.1 µM

Req: Consider the molecule shown here: O=S(=O)(CCC(c1ccc(-n2cc(-c3ccnc4[nH]cnc34)cn2)nc1)C(F)(F)F)C1CC1 (stereo not shown) What is its recorded IC50?
Resp: > 0.1 µM

Req: Consider the molecule shown here: N#CC(C(=O)NCC(F)(F)F)c1ccc(-n2cc(-c3ccnc4[nH]cnc34)cn2)nc1 (stereo not shown) What is its recorded IC50?
Resp: > 0.1 µM

Req: Consider the molecule shown here: FC(F)(F)[C@@H](c1ccc(-n2cc(-c3ccnc4[nH]cnc34)cn2)nc1)C1COC1 (single isomer, unassigned) What is its recorded IC50?
Resp: < 0.1 µM

Req: Consider the molecule shown here: CCN1CCC(C(O)(c2ccc(-n3cc(-c4ccnc5[nH]cnc45)cn3)nc2)C(F)(F)F)CC1 (stereo not shown) What is its recorded IC50?
Resp: < 0.1 µM

Req: Consider the molecule shown here: FC(F)(F)C(Cl)c1ccc(-n2cc(-c3ccnc4[nH]cnc34)cn2)nc1 (stereo not shown) What is its recorded IC50?
Resp: > 0.1 µM

Req: Consider the molecule shown here: N#Cc1ccc(-n2cc(-c3ccnc4[nH]cnc34)cn2)nc1 What is its recorded IC50?
Resp: > 1 µM

Req: Consider the molecule shown here: COC(c1ccc(-n2cc(-c3ccnc4[nH]cnc34)cn2)nc1)(C1CCN(C)CC1)C(F)(F)F (stereo not shown) What is its recorded IC50?
Resp: > 0.1 µM

Req: Consider the molecule shown here: CN(C)C(=O)CC(c1ccc(-n2cc(-c3ccnc4[nH]cnc34)cn2)nc1)C(F)(F)F (stereo not shown) What is its recorded IC50?
Resp: > 0.1 µM

Req: Consider the molecule shown here: CC(N)CCC(c1ccc(-n2cc(-c3ccnc4[nH]cnc34)cn2)nc1)C(F)(F)F (stereo not shown) [Example 1224, TFA salt] What is its recorded IC50?
Resp: 0.001 µM

Req: Consider the molecule shown here: N#CCNC(=O)n1cc(-c2ccnc3[nH]c(=O)[nH]c23)cn1 [Example 1035, hydrochloride] What is its recorded IC50?
Resp: > 10 µM
